Reported CC50 at 24 h values for a set of compounds
experiment: in vitro; conditions: rat, gh3-tre-luc cells, AC50 (uM) modified / 1000

Request: Can you look up the measured CC50 at 24 h of CC1=CC(C)(C)Nc2ccccc21 [1,2-Dihydro-2,2,4-trimethylquinoline] for me?
Response: > 90 µM

Further cases:
Request: Bench note: what CC50 at 24 h did "CCN(CCN)c1cccc(C)c1" show?
Response: 61.5 µM

Request: I'd like to know its CC50 at 24 h. The compound in question is "OC1CCCC1"
Response: > 90 µM

Request: Endpoint output: CC50 at 24 h of O=C(O)c1cc(O)c2c(c1)[C@H]([C@H]1c3cc(C(=O)O)cc(O)c3C(=O)c3c(O[C@@H]4O[C@H](CO)[C@@H](O)[C@H](O)[C@H]4O)cccc31)c1cccc(O[C@@H]3O[C@H](CO)[C@@H](O)[C@H](O)[C@H]3O)c1C2=O [Sennoside A] . Value?
Response: > 50 µM

Request: Tell me the measured CC50 at 24 h of "N[C@H](CO)C(=O)O" , please.
Response: > 50 µM

====

experiment: in vitro; conditions: rat, gh3-tre-luc cells, AC50 (uM) modified / 1000, Tox21_110001=Tox21_111928; viability, 1 nM T3 present, 24 h
test_readout: CC50 at 24 h

Request: State the recorded CC50 at 24 h for this entry: CNC(=O)Oc1ccccc1C(=O)Nc1ccccc1 [Anilamate]
Response: > 50 µM

====

assay: in vitro; conditions: rat, gh3-tre-luc cells, AC50 (uM) modified / 1000, Tox21_110001=Tox21_300689; viability, 1 nM T3 present, 24 h
test_readout: CC50 at 24 h

Request: // lookup CC50 at 24 h for O=C(Cc1ccccc1)OCCc1ccccc1 [2-Phenylethyl phenylacetate]
Response: > 90 µM

====

tested on: GH3-TRE-Luc cell line; settings: read-out: AC50 (uM) modified / 1000; Tox21_110001=Tox21_201278; viability, 1 nM T3 present, 24 h
Counter-ions that a name gives are not always drawn.
test_readout: CC50

Request: Return reported CC50; argument: CN(C)CCC=C1c2ccccc2CCc2ccccc21 [Amitriptyline hydrochloride]
Response: 8.86 µM

====

system: GH3-TRE-Luc cell line; conditions: read-out: AC50 (uM) modified / 1000; Tox21_110001=Tox21_112302; viability, 1 nM T3 present, 24 h
test_readout: CC50 (µM)
State the answer as a number, implicitly in µM.

Request: What measured CC50 goes with CCCCCCCCCC[N+](C)(C)CCCCCCCCCC [Didecyldimethylammonium bromide] ?
Response: 6.15

====

experiment: in vitro; conditions: rat, gh3-tre-luc cells, AC50 (uM) modified / 1000, Tox21_110001=Tox21_202439; viability, 1 nM T3 present, 24 h
test_readout: CC50 at 24 h

Request: // CC50 at 24 h lookup, key: C=CCc1ccc2c(c1)OCO2 [Safrole]
Response: > 90 µM

====

assay: in vitro; conditions: rat, gh3-tre-luc cells, AC50 (uM) modified / 1000, Tox21_110001=Tox21_112069; viability, 1 nM T3 present, 24 h
test_readout: CC50 at 24 h

Request: Would you kindly share the measured CC50 at 24 h for "CCOP(=O)(OCC)O/C(=C\Cl)c1ccc(Cl)cc1Cl" ?
Response: > 50 µM

// data source = paper PMC6792352
